Below is a list of entries, each paired with its recorded pIC50 value.
# Tested target: human TRPA1 (Homo sapiens)
# Construct: expressed in transfected cells; host or cells: CHO cells
# Sequence (O75762 whole entry): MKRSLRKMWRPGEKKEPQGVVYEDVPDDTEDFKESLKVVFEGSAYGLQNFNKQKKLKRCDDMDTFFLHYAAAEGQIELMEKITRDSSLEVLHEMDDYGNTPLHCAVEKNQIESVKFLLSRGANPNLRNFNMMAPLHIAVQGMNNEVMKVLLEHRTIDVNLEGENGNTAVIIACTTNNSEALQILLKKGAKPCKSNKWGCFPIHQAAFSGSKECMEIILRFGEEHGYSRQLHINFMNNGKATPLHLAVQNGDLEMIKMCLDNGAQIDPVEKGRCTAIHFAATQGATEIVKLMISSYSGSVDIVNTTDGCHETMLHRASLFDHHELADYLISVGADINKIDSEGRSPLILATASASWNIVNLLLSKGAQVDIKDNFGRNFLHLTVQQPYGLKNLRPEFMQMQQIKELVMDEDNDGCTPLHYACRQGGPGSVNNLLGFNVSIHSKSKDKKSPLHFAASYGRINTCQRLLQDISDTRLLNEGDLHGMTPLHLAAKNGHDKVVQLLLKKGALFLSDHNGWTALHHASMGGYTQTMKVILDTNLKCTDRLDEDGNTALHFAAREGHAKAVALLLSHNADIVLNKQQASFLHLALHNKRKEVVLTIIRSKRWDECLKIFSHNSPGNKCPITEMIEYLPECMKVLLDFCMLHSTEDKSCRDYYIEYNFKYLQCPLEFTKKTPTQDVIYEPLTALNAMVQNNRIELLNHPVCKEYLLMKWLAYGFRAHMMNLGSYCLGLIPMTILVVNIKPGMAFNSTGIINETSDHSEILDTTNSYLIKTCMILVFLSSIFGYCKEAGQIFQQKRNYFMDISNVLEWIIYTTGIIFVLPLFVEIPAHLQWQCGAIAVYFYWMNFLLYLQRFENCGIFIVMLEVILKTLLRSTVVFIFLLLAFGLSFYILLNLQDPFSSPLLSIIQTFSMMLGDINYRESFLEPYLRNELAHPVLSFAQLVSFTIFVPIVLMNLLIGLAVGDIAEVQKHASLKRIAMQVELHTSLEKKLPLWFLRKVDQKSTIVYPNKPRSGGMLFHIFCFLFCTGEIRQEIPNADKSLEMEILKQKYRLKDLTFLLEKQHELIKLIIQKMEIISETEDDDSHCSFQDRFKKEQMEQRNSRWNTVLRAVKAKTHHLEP
# Test: TRPA1 FLIPR Tetra calcium influx assay in CHO cells (block of cinnamaldehyde-induced calcium influx)
# Assay type: cell-based
# Cond: Table 1; CHO cells expressing TRPA1; agonist cinnamaldehyde 75 uM; with vs without substituent at R2/R3; read-out: hTRPA1 CHO Ca2+ AUC EVO (IC50)
# pIC50: negative log10 of molar concentration; output just the value

compound="O=C(NCc1cc(-c2cnc(C(F)(F)F)nc2)c(Cl)cn1)[C@@H]1C[C@@H](F)CN1S(=O)(=O)c1ccc(F)cc1 [reference compound]" observed=7.37
compound="C[C@H]1[C@H](F)C[C@@H](C(=O)NCc2cc(-c3cnc(C(F)(F)F)nc3)ncc2F)N1S(=O)(=O)c1ccc(F)cc1 [drawing 600]" observed=8.70
compound="O=C(NCc1cc(-c2cnc(C(F)(F)F)nc2)ncn1)[C@@H]1C[C@@H](F)CN1S(=O)(=O)c1ccc(F)cc1 [reference compound]" observed=6.60

Inquiry: I'd like to know its pIC50. The compound in question is C[C@H]1[C@H](F)C[C@@H](C(=O)NCc2cc(-c3cnc(C(F)(F)F)nc3)ncn2)N1S(=O)(=O)c1ccc(F)cc1 [drawing 602]
Reply text: 7.66

Inquiry: I'd like to know its pIC50. The compound in question is C[C@H]1[C@H](F)C[C@@H](C(=O)NCc2cc(-c3cnc(C(F)(F)F)nc3)c(Cl)cn2)N1S(=O)(=O)c1ccc(F)cc1 [drawing 604]
Reply text: 8.37

Inquiry: I'd like to know its pIC50. The compound in question is O=C(NCc1cc(-c2cnc(C(F)(F)F)nc2)ncc1F)[C@@H]1C[C@@H](F)CN1S(=O)(=O)c1ccc(F)cc1 [reference compound]
Reply text: 7.57

Inquiry: I'd like to know its pIC50. The compound in question is C[C@H]1[C@H](F)C[C@@H](C(=O)NCc2ccnc(-c3cnc(C(F)(F)F)nc3)c2)N1S(=O)(=O)c1ccc(F)cc1 [drawing 606]
Reply text: 7.71

Inquiry: I'd like to know its pIC50. The compound in question is O=C(NCc1ccnc(-c2cnc(C(F)(F)F)nc2)c1)[C@@H]1C[C@@H](F)CN1S(=O)(=O)c1ccc(F)cc1 [reference compound]
Reply text: 6.89
